tested on: SW-620 colon; test: NCI-60 one-dose screen, 48 h; settings: 10 µM
Compounds without any hit were thinned out: in the full panel of roughly 83,000, 20% have a hit. Calls of active or inactive are those of the source. How the source made its calls: active means growth percent below 10; inactive means the rest.
Give one outcome, nothing more. List: active, inactive

Test call for this compound, please: COc1cc(/C=C2\CCCC3=C2NC(N)=NC3c2cc(OC)c(OC)c(OC)c2)cc(OC)c1OC (stereo not drawn)
active

New cases:
Recorded call for CO[C@H]1CC(O[C@@H]2/C(C)=C/C[C@@H]3C[C@@H](C[C@]4(C=C[C@H](C)[C@@H](C5CCCCC5)O4)O3)OC(=O)[C@@H]3C=C(C)[C@@H](O)[C@H]4OC/C(=C\C=C\[C@@H]2C)[C@]43O)O[C@@H](C)C1O[C@H]1C[C@H](OC)[C@@H](O)[C@H](C)O1 (stereo partly drawn) ?
active

For CCNCC(=O)Nc1ccc(C(=O)OCC)cc1 , which call appears in the assay record?
inactive

###

Recorded growth for the following compounds
test system: M14 melanoma; assay: NCI-60 one-dose screen, 48 h (100 = growth as untreated, 0 = no growth, -100 = all killed); conditions: 10 µM
Compounds without any hit were thinned out: in the full panel of roughly 83,000, 20% have a hit. Activity calls are given as the source filed them. How the source made its calls: active means growth percent below 10; inactive means the rest.

The reported growth of the compound CCOC(=O)c1cc(C(=O)c2ccc(Cl)cc2)n2ccc(-c3cc[n+](CC(=O)c4ccc(OC)cc4)cc3)cc12 was 56.8% (inactive)

Looking up Nc1nc(Cn2c(-c3nonc3N)nc3ccccc32)nc(N2CCCCC2)n1 , I found its growth recorded as 98.4% (inactive)

###

tested on: MCF7 breast; assay: NCI-60 one-dose screen, 48 h (100 = growth as untreated, 0 = no growth, -100 = all killed); details: 10 µM
Compounds without any hit were thinned out: in the full panel of roughly 83,000, 20% have a hit.
measured.property: growth (%)
Give the number; % is assumed, so skip it.

Solved entries:
Please fill in: growth reported for COc1ccc(/C(C#N)=C/c2cccc(OC)c2OC)cc1 = 66

Query COc1cc2nc(SCC(=O)Nc3cc(OC)c(OC)c(OC)c3)n(Cc3ccccc3)c(=O)c2cc1OC yields growth of 82.6

Input CS(=O)(=O)c1nccc(-c2c(-c3cccc(O)c3)nc3sccn23)n1 . Output growth: 86.3

// sample Cc1c2c[n+](C(C)C)ccc2c(C)c2c1[nH]c1ccccc12 , its growth was 3.87

Now take the following compound into account.
Quick note, growth for CNC(=O)c1cc(Oc2ccc3c(c2)sc2nc(-c4ccc(NC(=O)Nc5ccc(Cl)c(C(F)(F)F)c5)cc4)cn23)ccn1 landed at 82.6

###

system: UO-31 renal; assay: NCI-60 one-dose screen, 48 h (100 = growth as untreated, 0 = no growth, -100 = all killed); settings: 10 µM
About 83,000 compounds went through this panel and 20% of them were active in at least one assay; those are over-represented in the sample as a whole.
Rule for this label: rule met means growth is less than 20%; rule not met means growth is at least 20%.

Solved cases below.
Lab log: compare recorded growth with 20%; is it strictly lower for S=C1N(c2ccccc2)CN(C2CCCCC2)CN1c1ccccc1 ?
rule not met

For CCN(CC)CCN1c2nc3ccccc3cc2Sc2cc3ccccc3nc21 , is the recorded growth below the cut-off of 20%?
rule met

Strictly below 20% in growth? CCOc1ccccc1/C=N\N=C\c1ccccc1O
rule not met

growth under 20%? Item: COc1ccc2c(c1)C(=O)/C(=C/c1ccc([N+](=O)[O-])o1)O2
rule met

Continuing:
A record lists COc1ccc(-c2nn(-c3cccc(Cl)c3)cc2-c2cc(-c3cccs3)[nH]c(=S)n2)cc1 . Is its growth below 20%?
rule not met

Hi there! Is growth for COc1ccc(C(=O)CSc2nc(-c3cc(OC)ccc3OC)cc(-c3ccc(OC)cc3)c2C#N)cc1 below 20%, do you know?
rule not met

In the record for CCn1c(SCCc2ccccc2)nnc1-c1nn(-c2ccc(Cl)cc2Cl)c(-c2ccc(Cl)cc2)c1C , is growth less than 20%?
rule not met

Answer whether the molecule CCOC(=O)c1sc2ncnc(Nc3ccc(NC(=O)Nc4ccc(Cl)cc4)cc3)c2c1C has growth strictly less than 20%
rule not met

# strict comparison: is reported growth < 20%? input = CCOC(=O)c1cc(C(=O)c2cc(OC)cc(OC)c2)n2ncc3ccccc3c12
rule met

Consider the molecule N#Cc1c(-c2ccc(Cl)cc2)n(O)c2ccccc12 . Is its growth strictly less than 20%?
rule met
